Below, each entry is listed with its recorded normalized growth.
Test: chemical genetic growth profiling, strain panel (AID 1159580);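 also: tested at 20 µM; growth read once vehicle control cultures reached saturation at 30 °C; 1 = growth at the plate median or of vehicle wells; lower values mean less growth of the strain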
Settings: S. cerevisiae deletion strains, growth OD, locus YOR119C, strain RIO1, active compounds read low
Screen size: about 5,500 compounds; about 2,000 (36%) were called active. Not shown: some 18% with an inconclusive outcome. The list shows a part of the results.

{"Compound": "Cc1ccc(NNC(=O)c2c(C)noc2C)cc1Cl", "normalized growth": 0.976}
{"Compound": "CC(C)(C)c1ccc(C(=O)NNc2c(Cl)cccc2Cl)cc1", "normalized growth": 0.985}
{"Compound": "OC(CN1CCN(c2nc3ccc(Cl)cc3s2)CC1)Cn1ccc2ccccc21 (stereo not given)", "normalized growth": 1.01}
{"Compound": "Cc1nc(-c2ccc(S(=O)(=O)Nc3ccc(Br)cc3Cl)s2)cs1", "normalized growth": 0.938}
{"Compound": "COC(=O)c1sccc1-c1ccc(/C=C/[N+](=O)[O-])o1", "normalized growth": 0.875}

---

Experiment: chemical genetic growth profiling, strain panel (AID 1159580)
Settings: S. cerevisiae deletion strains, growth OD, locus YDR069C, strain doa4, active compounds read low
The whole screen tested about 5,500 compounds, of which about 2,000 (36%) were called active. About 18% were inconclusive and are not listed. This is one part of the list.
Cut-off 1 on normalized growth: below means label 1, at or above means label 0.

{"Compound": "CC(C)C(C)/C=C/C(C)C1CCC2C3=CC=C4CC(O)CCC4(C)C3CCC21C (stereo not drawn)", "Label": "label 1"}
{"Compound": "C=C1CCC(OC(C)=O)/C(C)=C/C[C@@H]2[C@@H]1CC2(C)C (stereo partly drawn)", "Label": "label 0"}
{"Compound": "NC(=O)c1cccc(N)c1", "Label": "label 1"}
{"Compound": "CCCCOC(=O)c1ccc(N)cc1", "Label": "label 1"}
{"Compound": "Cc1c(Cl)cccc1Nc1ccccc1C(=O)O", "Label": "label 1"}
{"Compound": "Cc1ccc(Cl)c(Nc2ccccc2C(=O)O)c1Cl", "Label": "label 1"}
{"Compound": "CCNC(=O)CC[C@H](N)C(=O)O", "Label": "label 0"}
{"Compound": "O=C1[C@H](CCC(O)c2ccc(F)cc2)[C@@H](c2ccc(O)cc2)N1c1ccc(F)cc1 (stereo partly drawn)", "Label": "label 1"}
{"Compound": "Oc1ccc(Cl)cc1Cc1cc(Cl)ccc1O", "Label": "label 1"}

---

Assay: chemical genetic growth profiling, strain panel (AID 1159580);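 also: tested at 20 µM; growth read once vehicle control cultures reached saturation at 30 °C; 1 = growth at the plate median or of vehicle wells; lower values mean less growth of the strain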
Conditions: S. cerevisiae deletion strains, growth OD, locus YCL061C, strain MRC1, active compounds read low
Among all 5,500 compounds or so, about 2,000 (36%) were called active. Another 18% or so got no clear call; they are omitted. The list shows a part of the results.

{"Compound": "CC(C)NCC(O)COc1cccc2ccccc12 (configuration not stated)", "normalized growth": 1.02}
{"Compound": "Oc1ccc(Cl)cc1", "normalized growth": 1.02}
{"Compound": "COc1ccc([C@H]2Oc3cc(OC)cc(OC)c3C[C@H]2O)cc1", "normalized growth": 0.987}
{"Compound": "CC(C)NCC(O)c1cc(O)cc(O)c1 (configuration not stated)", "normalized growth": 0.991}
{"Compound": "CCCOc1ccc(C(=O)OCCN(CC)CC)cc1N", "normalized growth": 1}
{"Compound": "CCCc1cnc(N2CCCN(C(=S)Nc3cccnc3)CC2)nc1", "normalized growth": 1.01}
{"Compound": "CC1C[C@H]2CC(=O)[C@H]3CCCN4CCC[C@H]2[C@]34C1 (some centres not stated)", "normalized growth": 1.01}

---

Below, each entry is listed with its recorded normalized growth.
Assay: chemical genetic growth profiling, strain panel (AID 1159580);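 also: tested at 20 µM; growth read once vehicle control cultures reached saturation at 30 °C; 1 = growth at the plate median or of vehicle wells; lower values mean less growth of the strain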
Conditions: S. cerevisiae deletion strains, growth OD, locus YNL175C, strain NOP13, active compounds read low
The campaign covered roughly 5,500 compounds. About 2,000 (36%) were called active. Roughly 18% stayed inconclusive and do not appear here. The list shows a part of the results.

{"Molecule": "CCCCNc1ccc(C(=O)OCCN(C)C)cc1", "normalized growth": 1.01}
{"Molecule": "COc1ccc2c(c1)c(CC(=O)O)c(C)n2Cc1ccc(F)cc1", "normalized growth": 1}
{"Molecule": "CCN1C[C@]2(C)CC[C@H](O)[C@@]34C5C[C@@H]6[C@@H](OC)C[C@@](O)(C5[C@H]6O)[C@@H](CC23)C14 (some centres undefined)", "normalized growth": 1.01}
{"Molecule": "CCCN(CCC)C1CCc2cccc(O)c2C1 (centres undefined)", "normalized growth": 1.01}
{"Molecule": "CC(C)(C)C1(O)CCN2CC3c4ccccc4CCc4cccc(c43)C2C1 (centres undefined)", "normalized growth": 0.996}
{"Molecule": "CCCN1CCC[C@@H](c2cccc(C#N)c2)C1", "normalized growth": 0.993}
{"Molecule": "Cn1c(=O)c2[nH]cnc2n(C)c1=O", "normalized growth": 0.995}
{"Molecule": "NC/C=C\\C(=O)O", "normalized growth": 1}
{"Molecule": "CCN(CC)CCOC(=O)c1ccc(N)cc1", "normalized growth": 0.991}
{"Molecule": "NC(=O)c1cccc(N)c1", "normalized growth": 1.02}
{"Molecule": "O=C(C1CCCCC1)N1CC(=O)N2CCc3ccccc3C2C1 (centres undefined)", "normalized growth": 1.01}
{"Molecule": "OCc1cnc[nH]1", "normalized growth": 1.02}
{"Molecule": "CO/N=C(/C(=O)N[C@@H]1C(=O)N2C(C(=O)O)=C(COC(C)=O)CS[C@H]12)c1csc(N)n1", "normalized growth": 1.01}
{"Molecule": "C[C@@H]1O[C@H](C[N+](C)(C)C)CS1", "normalized growth": 1.01}
{"Molecule": "O=C(O)Cc1ccc(O)c(O)c1", "normalized growth": 1.02}
{"Molecule": "O=C(O)Cc1c[nH]c2ccc(O)cc12", "normalized growth": 0.982}
{"Molecule": "COc1nc(C)nc(Cl)c1NC1=NCCN1", "normalized growth": 1}
{"Molecule": "COC(=O)[C@@H](N)Cc1ccc(O)c(O)c1", "normalized growth": 1}
{"Molecule": "Cc1ccc([N+](=O)[O-])cc1S(=O)(=O)N(C)C", "normalized growth": 0.996}
{"Molecule": "CN1CCc2cccc(Cl)c2CC1", "normalized growth": 1.01}
{"Molecule": "CC[N+](CC)(CC)CCOc1cccc(OCC[N+](CC)(CC)CC)c1OCC[N+](CC)(CC)CC", "normalized growth": 0.987}
{"Molecule": "CCNC(=O)[C@H]1O[C@@H](n2cnc3c(N)ncnc32)C(O)[C@H]1O (some centres undefined)", "normalized growth": 1}
{"Molecule": "CCCN1CCC[C@@H](c2cccc(O)c2)C1", "normalized growth": 1.01}
{"Molecule": "CC(C)C(=O)Nc1ccc([N+](=O)[O-])c(C(F)(F)F)c1", "normalized growth": 0.977}

---

Below, each entry is listed with its recorded normalized growth.
Assay: chemical genetic growth profiling, strain panel (AID 1159580);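 also: tested at 20 µM; growth read once vehicle control cultures reached saturation at 30 °C; 1 = growth at the plate median or of vehicle wells; lower values mean less growth of the strain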
Conditions: S. cerevisiae deletion strains, growth OD, locus YLR262C, strain YPT6, active compounds read low
The campaign covered roughly 5,500 compounds. About 2,000 (36%) were called active. About 18% were inconclusive and are not listed. This is one part of the list.

{"Molecule": "Nc1nc2ncc(=O)[nH]c2c(=O)[nH]1", "normalized growth": 0.994}
{"Molecule": "COc1cc2occ(-c3ccccc3)c(=O)c2c(OC)c1C", "normalized growth": 0.725}
{"Molecule": "COc1c(OC)c2occc2c2oc(=O)ccc12", "normalized growth": 0.79}
{"Molecule": "N#C/C(=C\\c1ccc(Oc2ccccc2)nc1)S(=O)(=O)c1ccccc1", "normalized growth": 1.02}
{"Molecule": "N#CC(C#N)=Cc1ccc(-c2cc(C(F)(F)F)ccc2Cl)o1", "normalized growth": 0.913}
{"Molecule": "CO/N=C(\\C(=O)N[C@@H]1C(=O)N2C(C(=O)O)=C(CSc3nc(=O)c(O)nn3C)CS[C@H]12)c1csc(N)n1", "normalized growth": 0.982}
{"Molecule": "CC(C)C(C)/C=C/C(C)[C@H]1CCC2C3=CCC4CC(=O)CC[C@]4(C)C3CC[C@@]21C (stereo partly specified)", "normalized growth": 0.952}
{"Molecule": "O=C(O)CN1C(=O)c2cccc3cccc(c23)C1=O", "normalized growth": 0.985}
{"Molecule": "CSC(=NS(=O)(=O)c1ccccc1)SC", "normalized growth": 0.513}
{"Molecule": "Clc1ccc(C2=CSC3=NCCCN23)cc1", "normalized growth": 0.998}
{"Molecule": "CCCC(=O)O[C@]1(C(=O)CO)CCC2[C@@H]3CCC4=CC(=O)CC[C@]4(C)C3[C@@H](O)C[C@@]21C (stereo partly specified)", "normalized growth": 1.01}
{"Molecule": "COCCCNC(=S)Nc1ccc(C)cc1C", "normalized growth": 0.961}
{"Molecule": "CC1OC1P(=O)(O)O (stereo unspecified)", "normalized growth": 0.956}
{"Molecule": "Cc1cc(NC(=O)C2=C(O)c3ccccc3S(=O)(=O)N2C)no1", "normalized growth": 0.977}
{"Molecule": "Cc1ccc(NC(=O)c2c(F)cccc2Cl)c(C(=O)Nc2ccc(F)cc2)c1", "normalized growth": 0.933}
{"Molecule": "COC(=O)C1=C(C)NC(C)=C(C(=O)OC)C1c1ccc(-c2ccsc2C(=O)OC)o1", "normalized growth": 0.999}
{"Molecule": "COC(=O)c1sccc1-c1ccc(C(C)=O)o1", "normalized growth": 0.961}
{"Molecule": "CC1(C)OC(=O)C=CC2(C)C1CC(O)C1(C)C2CCC2(C)C(c3ccoc3)OC(=O)C3OC321 (stereo unspecified)", "normalized growth": 1.09}
{"Molecule": "C=C1C(=O)O[C@@H]2C3O[C@]3(C)CC/C=C(\\C)CC[C@@H]12 (stereo partly specified)", "normalized growth": 0.193}
{"Molecule": "Cc1cccc(C)c1NC1=NCCCS1", "normalized growth": 0.985}
{"Molecule": "COc1cc(-c2coc3cc(OCc4ccccc4)c(OC)c(O)c3c2=O)cc(OCc2ccccc2)c1OC", "normalized growth": 1.08}
{"Molecule": "NC(=O)c1cccc(N)c1", "normalized growth": 1.01}
{"Molecule": "NC[C@@H]1CC[C@@H](N)[C@@H](O[C@H]2[C@H](O)[C@@H](O[C@H]3O[C@H](CO)[C@@H](O)[C@H](N)[C@H]3O)[C@H](N)C[C@@H]2N)O1", "normalized growth": 0.9}
{"Molecule": "CC(C)NC[C@H](O)COc1cccc2ccccc12", "normalized growth": 1.02}
{"Molecule": "CC1C[C@H]2CC(=O)[C@H]3CCCN4CCC[C@H]2[C@]34C1 (stereo partly specified)", "normalized growth": 1.12}
{"Molecule": "COC(=O)c1sccc1NC(=O)C1CC1", "normalized growth": 1.07}
{"Molecule": "COC(=O)C1=CCCN(C)C1", "normalized growth": 0.953}
{"Molecule": "C=C1C(C)C2C(Cc3ccccc3)NC(=O)C23OC(=O)/C=C/C(O)CCCC(C)C/C=C/C3C1O (stereo unspecified)", "normalized growth": 1.02}
{"Molecule": "CCC(C)c1cnc(CC(C)C)c(=O)n1O (stereo unspecified)", "normalized growth": 0.806}
{"Molecule": "CCCCN1CCCCC1C(=O)Nc1c(C)cccc1C (stereo unspecified)", "normalized growth": 1.06}
{"Molecule": "O=C(O)c1cc2cc(Cc3cccnc3)ccc2o1", "normalized growth": 1.03}
